# testedSystem: Concanavalin-A (Canavalia ensiformis) (UniProt P02866)
# Sequence (P02866 whole entry, looked up): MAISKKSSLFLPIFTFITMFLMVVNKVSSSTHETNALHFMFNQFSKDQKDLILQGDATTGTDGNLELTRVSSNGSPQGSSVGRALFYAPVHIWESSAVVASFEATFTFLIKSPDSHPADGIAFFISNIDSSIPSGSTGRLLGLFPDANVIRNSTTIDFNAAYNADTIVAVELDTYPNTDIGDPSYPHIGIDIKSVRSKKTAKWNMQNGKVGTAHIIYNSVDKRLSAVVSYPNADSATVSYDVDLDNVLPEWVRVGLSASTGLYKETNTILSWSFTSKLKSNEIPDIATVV
# testName: ConA small-molecule binders, primary screen, artefact control for SMM control protein annotation, biochemical, small-molecule microarray, Alexa647 label, 635 nm (AID 1127)
# details: ConA-A647 binding fluorescence, higher = more signal
Lab note: compare composite z-score against 0.3. Equal or greater, write MET. Smaller, write NOT MET.

# count of solved cases: 5
- compound: "C=C(CCCC)C(=O)CC[C@@H](OC(=O)c1cccnc1)c1ccc(OCCO)cc1"
  groupLabel: "NOT MET"
- compound: "C=CCN1C(=O)[C@]2(O[C@H](CCO)[C@@H]([Si](C)(C)c3ccc(OC)cc3)[C@@H]2C)c2cc(NC(=O)c3ccc(OC)cc3)ccc21"
  groupLabel: "MET"
- compound: "COCCCNC(=O)[C@@H]1c2ccccc2C(=O)N(C2Cc3ccccc3C2)[C@H]1c1ccc(CO)cc1"
  groupLabel: "NOT MET"
- compound: "CCCCNC(=O)c1ccc(C#C[Si](C(C)C)(C(C)C)C(C)C)c(OC(C)=O)c1"
  groupLabel: "MET"
- compound: "CC(C)[C@H]1NC(=O)[C@@]23C(=O)N[C@@H](Cc4ccccc4)C2[C@H](C)[C@@]2(C)O[C@H]2C3/C=C/CCC/C=C/CNC(=O)[C@H](Cc2ccccc2)NC1=O (stereo not given in full)"
  groupLabel: "NOT MET"

Given COCC1=C2[C@@H](CCc3ccccc3)OB(O)C[C@@H]2[C@@H]2C(=O)N(C)C(=O)[C@@H]2C1 , state whether its composite z-score is at least 0.3.
NOT MET

Given CN(C)C(=O)[C@@]1(Cc2ccccc2N=[N+]=[N-])N=C(c2ccc(OCCCO)cc2)O[C@H]1c1ccccc1 , state whether its composite z-score is at least 0.3.
MET

Given O=C1OCCC=C[C@H]2OC34C=CCN(c5ccc(Cl)cc5)C(=O)[C@H]3N(CCCCCCO)C(=O)[C@@H]4C12 (stereo not given in full) , state whether its composite z-score is at least 0.3.
NOT MET

Given COCCCNC(=O)[C@@]1(Sc2ccc(C)cc2)CC(=O)N(Cc2ccccc2Cl)[C@@H]1c1ccc(CO)cc1I , state whether its composite z-score is at least 0.3.
NOT MET

Given CCOC(=O)C1=CCC(c2ccccc2)N(S(=O)(=O)c2ccc([N+](=O)[O-])cc2)C1 (stereo not given) , state whether its composite z-score is at least 0.3.
NOT MET

Given C=C(COC)C(=O)CC[C@@H](OC(=O)c1cccnc1)c1ccccc1OCCO , state whether its composite z-score is at least 0.3.
MET

Values were extracted from PubChem BioAssay.
